Test system: Staphylococcus aureus
Test: Antibacterial activity against fluoroquinolone resistant Staphylococcus aureus 4-FQR3M BSA643 expressing GyrA Ser84Leu mutant and GrlA Ser80Tyr and Glu84Gly mutant
Assay type: functional
Checkbox rule: MIC lower than 20 µg/mL = yes; MIC not lower than 20 µg/mL = no.

# compound, category
records = [
    ("COc1ccc2nccc([C@H](O)CC[C@@H]3CCN(CCSc4ccc[se]4)C[C@@H]3C(=O)O)c2c1 (mixture of isomers)", "yes"),
    ("COc1ccc2nccc([C@@H](O)CC[C@@H]3CCN(CCSc4ccco4)C[C@@H]3C(=O)O)c2c1 (mixture of isomers)", "yes"),
    ("O=C(O)c1cn(C2CC2)c2cc(N3CCNCC3)c(F)cc2c1=O", "no"),
    ("COc1ccc2nccc([C@@H](O)CC[C@@H]3CCN(CCSc4cccs4)C[C@@H]3C(=O)O)c2c1 (mixture of isomers)", "yes"),
    ("COc1ccc2nccc([C@@H](O)CC[C@@H]3CCN(CCSc4ccc[se]4)C[C@@H]3C(=O)O)c2c1 (mixture of isomers)", "yes"),
    ("COc1c(N2C[C@@H]3CCCN[C@@H]3C2)c(F)cc2c(=O)c(C(=O)O)cn(C3CC3)c12", "yes"),
    ("COc1ccc2nccc([C@H](O)CC[C@@H]3CCN(CCSc4cccs4)C[C@@H]3C(=O)O)c2c1 (mixture of isomers)", "yes"),
    ("COc1ccc2nccc([C@H](O)CC[C@@H]3CCN(CCSc4ccco4)C[C@@H]3C(=O)O)c2c1 (mixture of isomers)", "yes"),
    ("CO/N=C1\\CN(c2nc3c(cc2F)c(=O)c(C(=O)O)cn3C2CC2)CC1CN (centres undefined)", "no"),
]

Provenance of the data: ChEMBL document CHEMBL2157972
